ASSAY_TARGET: T1, CD137 protein (UniProt Q07011 24-186, limits assumed)
T1 construct: also called CD137 antigen; CD137 receptor
T1 sequence (Q07011 24-186 limits assumed): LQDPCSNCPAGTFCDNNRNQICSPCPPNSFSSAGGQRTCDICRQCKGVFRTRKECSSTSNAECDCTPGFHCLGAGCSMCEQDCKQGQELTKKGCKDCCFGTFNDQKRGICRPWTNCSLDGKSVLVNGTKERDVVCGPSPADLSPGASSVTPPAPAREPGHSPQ
METHOD: BLI (Octet Red 96), antibody on anti-human Fc sensors, CD137 protein in solution, 1:1 model
MEASUREMENT_TYPE: koff (s⁻¹)
Give your result in s⁻¹ as a bare value.

Supply koff value. Item: humanized anti-CD137 antibody clone 3716 (IgG4 S228P/kappa) (antibody, V domains shown) VH: QVQLVQSGAEVVKPGASVKVSCKASGYTFAGFEMHWVRQAPGQGLGWMGAIDPKTGGTDYNQKFKDRVTMTADTSISTAYMELSRLRSDDTAVYYCTRDLGYFDVWGQGTLVTVSS VL: DIQMTQSPSSLSASVGDRVTITCRASQDIRSNLNWYQQKPGGAVKLLIYYTSRLHSGVPSRFSGSGSGTDYTLTISSLQPEDFATYFCQQSEKLPRTFGGGTKLEIRR 0.0022

Read off the recorded koff for humanized anti-CD137 antibody clone 3718 (IgG4 S228P/kappa) (antibody, V domains shown) VH: QVQLVQSGAEVVKPGASVKLSCKASGYTFAGFEMHWIRQAPGQGLGWIGAIDPKTGGTDYNQKFKDRATLTADTSISTAYMELSRLRSDDTAVYYCTRDLGYFDVWGQGTLVTVSS VL: DIQMTQSPSSLSASVGDRVTITCRASQDIRSNLNWYQQKPGGAVKLLIYYTSRLHSGVPSRFSGSGSGTDYTLTISSLQPEDFATYFCQQSEKLPRTFGGGTKVEIRR 0.0026

Give the reported value of koff for this record: humanized anti-CD137 antibody clone 3719 (IgG4 S228P/kappa) (antibody, V domains shown) VH: QVQLVQSGAEVVKPGASVKLSCKASGYTFAGFEMHWIRQAPGQGLGWIGAIDPKTGGTDYNQKFKDRATLTADTSISTAYMELSRLRSDDTAVYYCTRDLGYFDVWGQGTLVTVSS VL: DIQMTQSPSSLSASVGDRVTITCRASQDIRSNLNWYQQKPGGAVKLLIYYTSRLHSGVPSRFSGSGSGTDYTLTISSLQPEDFATYFCQQSEKLPRTFGGGTKLEIRR 0.0026
